# Test system: mouse monocytic leukemia P-388 cell line
# TEST SUMMARY: In vivo anticancer activity against mouse monocytic leukemia P-388 cell line
# Parameters: species or system mouse (CDF1)
# CONDITION LABEL: 200 mg/kg, oral, twice (following day and after 5 days)
PROPERTY LABEL: T/C (median survival time, treated/control) (%)
One number for each entry, in %.

Here is how some molecules turned out for T/C (median survival time, treated/control).
COc1ccc(S(=O)(=O)Nc2ccccc2/C=C/c2cc[n+]([O-])cc2)cc1 [Example 20]; 195
COc1ccc(S(=O)(=O)Nc2ccccc2/C=C/c2ccncc2)cc1.Cl [Example 3B]; 221
COc1ccc(S(=O)(=O)N(CCO)c2ccccc2/C=C/c2ccncc2)cc1 [Example 34]; 210
COc1ccc(S(=O)(=O)N(CCO)c2ccccc2/C=C/c2cc[n+]([O-])cc2)cc1 [Example 49]; 220

Hello, please tell me recorded T/C (median survival time, treated/control) for this one: COc1ccc(S(=O)(=O)N(C(C)=O)c2ccccc2/C=C/c2cc[n+]([O-])cc2)cc1 [Example 57]
250

====

# Tested on: WiDr (human colorectal cancer)
# TEST SUMMARY: In vitro anticancer effect (MTT), WiDr cell line
# Assay type: cell-based
# CONDITION LABEL: WiDr cells, 72 hours, read-out: IC50 (50% cell growth-inhibitory concentration)
# Excerpt: In Vitro anticancer effects on KB (human nasopharynx carcinoma), Colon 38 (mouse colon cancer), and WiDr (human colorectal cancer) cell lines Each of KB, Colon 38, and WiDr cell lines were respectively cultured using 10% fetal calf serum-supplemented D-MEM medium (Nissui Pharmaceutical). […] Using a hemocytometer, the number of the cells in the suspension were counted. […]
PROPERTY LABEL: IC50
Provide a numeric answer, followed by its unit.

Here is how some compounds turned out for IC50.
COc1ccc(S(=O)(=O)Nc2ccccc2/C=C\c2cccnc2)cc1 [Example 2 (cis)]; 4.81 µg/mL
COc1ccc(S(=O)(=O)Nc2ncccc2/C=C/c2ccccc2)cc1 [Example 1]; 0.45 µg/mL
COc1ccc(S(=O)(=O)Nc2ccccc2/C=C/c2cccnc2)cc1 [Example 2 (trans)]; 0.09 µg/mL
COc1ccc(S(=O)(=O)Nc2ccccc2/C=C/c2ccccn2)cc1 [Example 4]; 0.16 µg/mL

Hello, please tell me recorded IC50 for this one: COc1ccc(S(=O)(=O)Nc2ccccc2/C=C/c2ccncc2)cc1 [Example 3A]
0.0025 µg/mL

====

# Tested on: Colon 38 (mouse colon cancer)
# TEST SUMMARY: In vitro anticancer effect (MTT), Colon 38 cell line
# Assay type: cell-based
# CONDITION LABEL: Colon 38 cells, 72 hours, read-out: IC50 (50% cell growth-inhibitory concentration)
Would you kindly list IC50 for each of these molecules?
One number for each entry, in µg/mL.

Here is how some molecules turned out for IC50.
COc1ccc(S(=O)(=O)Nc2ccccc2/C=C/c2ccncc2)cc1; 0.0031
COc1ccc(S(=O)(=O)Nc2ccccc2/C=C/c2ccccn2)cc1; 0.16
COc1ccc(S(=O)(=O)Nc2ccccc2/C=C/c2cccnc2)cc1 [Example 2 (trans)]; 0.15

Could I get IC50 for every one of these entries?
1. COc1ccc(S(=O)(=O)Nc2ccccc2/C=C\c2cccnc2)cc1 [Example 2 (cis)]
2. COc1ccc(S(=O)(=O)Nc2ncccc2/C=C/c2ccccc2)cc1

1. 6.48
2. 0.75

Every entry's value here was drawn from patent US5972976A.
